Below are molecules with their pIC50 as measured on Proto-oncogene tyrosine-protein kinase Src (Homo sapiens).
Sequence (P12931 2-536 limits assumed): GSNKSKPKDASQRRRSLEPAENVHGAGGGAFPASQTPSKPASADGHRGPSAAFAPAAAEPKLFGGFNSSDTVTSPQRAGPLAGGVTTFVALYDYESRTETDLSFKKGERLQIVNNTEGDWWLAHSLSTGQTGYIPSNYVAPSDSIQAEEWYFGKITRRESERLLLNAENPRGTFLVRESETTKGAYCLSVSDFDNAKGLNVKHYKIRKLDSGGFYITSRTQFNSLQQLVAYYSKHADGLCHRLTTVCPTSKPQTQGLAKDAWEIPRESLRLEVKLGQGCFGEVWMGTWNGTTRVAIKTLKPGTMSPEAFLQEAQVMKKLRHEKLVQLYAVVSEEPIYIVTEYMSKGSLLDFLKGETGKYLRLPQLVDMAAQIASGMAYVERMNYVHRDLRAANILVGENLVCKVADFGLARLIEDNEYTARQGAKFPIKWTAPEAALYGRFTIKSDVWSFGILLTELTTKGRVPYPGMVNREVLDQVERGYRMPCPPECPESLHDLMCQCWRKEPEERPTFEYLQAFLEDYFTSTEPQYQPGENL
pIC50: −log10 of the molar value.
metric: pIC50

P = CC(C)(C)NC(=O)Nc1nc2nc(N)ncc2cc1-c1c(Cl)cccc1Cl
Q = CCN(CC)CCCCNc1ncc2cc(-c3c(Cl)cccc3Cl)c(NC(=O)NC(C)(C)C)nc2n1
Exercise: Of P and Q , which carries the smaller reported pIC50 figure? Identify your pick by its label.
Key: P
(P: 6.66, Q: 7.36)

====

# target system: Platelet-derived growth factor receptor (PDGFr) (Rattus norvegicus, UniProt P20786+Q05030)
# assay text: Inhibition of platelet derived growth factor (PDGF) stimulated PDGF-receptor autophosphorylation in rat aortic vascular smooth muscle cells (RAVSMCs)
metric: IC50 (µM)

Example entries begin here.
CCN(CC)CCCCNc1ncc2cc(-c3c(Cl)cccc3Cl)c(NC(=O)NC(C)(C)C)nc2n1 ... 0.45
CCN(CC)CCCNc1ncc2cc(-c3c(Cl)cccc3Cl)c(NC(=O)NC(C)(C)C)nc2n1 ... 1.8
Cc1cc(C)c(C)c(-c2cc3cnc(NCCCN4CCN(C)CC4)nc3nc2NC(=O)NC(C)(C)C)c1C ... 4.3
CC(C)(C)NC(=O)Nc1nc2nc(N)ncc2cc1-c1c(Cl)cccc1Cl ... 0.63

P = CCNC(=O)Nc1nc2nc(N)ncc2cc1-c1c(Cl)cccc1Cl
Q = CCNC(=O)Nc1nc2nc(NCCCCN(CC)CC)ncc2cc1-c1c(Cl)cccc1Cl
Exercise: Pick the one with the larger IC50: P vs Q Write down the label of the entry you select.
Key: P
(P: 3.73 µM, Q: 0.25 µM)

====

# target system: Platelet-derived growth factor receptor (PDGFr) (Rattus norvegicus, UniProt P20786+Q05030)
# assay text: Inhibition of Platelet-derived growth factor receptor (PDGFr) tyrosine kinase in rat aortic vascular smooth muscle cells (RAVSMCs).
metric: IC50 (µM)

Answered examples (2):
CCNC(=O)Nc1nc2nc(NCCCCN(CC)CC)ncc2cc1-c1c(Cl)cccc1Cl ... 0.19
CC(C)(C)NC(=O)Nc1nc2nc(N)ncc2cc1-c1c(Cl)cccc1Cl ... 1.11

I = CCNC(=O)Nc1nc2nc(N)ncc2cc1-c1c(Cl)cccc1Cl
II = CCN(CC)CCCCNc1ncc2cc(-c3c(Cl)cccc3Cl)c(NC(=O)NC(C)(C)C)nc2n1
III = CC(C)(C)NC(=O)Nc1nc2nc(N)ncc2cc1-c1ccccc1
IV = CCN(CC)CCCNc1ncc2cc(-c3c(Cl)cccc3Cl)c(NC(=O)NC(C)(C)C)nc2n1
Exercise: # desc sort on IC50 across 4 compounds Present the labels in the sequence the task asks for.
Key: III, I, IV, II

====

# target system: Epidermal growth factor receptor (Homo sapiens, UniProt P00533)
# Sequence (P00533 whole entry): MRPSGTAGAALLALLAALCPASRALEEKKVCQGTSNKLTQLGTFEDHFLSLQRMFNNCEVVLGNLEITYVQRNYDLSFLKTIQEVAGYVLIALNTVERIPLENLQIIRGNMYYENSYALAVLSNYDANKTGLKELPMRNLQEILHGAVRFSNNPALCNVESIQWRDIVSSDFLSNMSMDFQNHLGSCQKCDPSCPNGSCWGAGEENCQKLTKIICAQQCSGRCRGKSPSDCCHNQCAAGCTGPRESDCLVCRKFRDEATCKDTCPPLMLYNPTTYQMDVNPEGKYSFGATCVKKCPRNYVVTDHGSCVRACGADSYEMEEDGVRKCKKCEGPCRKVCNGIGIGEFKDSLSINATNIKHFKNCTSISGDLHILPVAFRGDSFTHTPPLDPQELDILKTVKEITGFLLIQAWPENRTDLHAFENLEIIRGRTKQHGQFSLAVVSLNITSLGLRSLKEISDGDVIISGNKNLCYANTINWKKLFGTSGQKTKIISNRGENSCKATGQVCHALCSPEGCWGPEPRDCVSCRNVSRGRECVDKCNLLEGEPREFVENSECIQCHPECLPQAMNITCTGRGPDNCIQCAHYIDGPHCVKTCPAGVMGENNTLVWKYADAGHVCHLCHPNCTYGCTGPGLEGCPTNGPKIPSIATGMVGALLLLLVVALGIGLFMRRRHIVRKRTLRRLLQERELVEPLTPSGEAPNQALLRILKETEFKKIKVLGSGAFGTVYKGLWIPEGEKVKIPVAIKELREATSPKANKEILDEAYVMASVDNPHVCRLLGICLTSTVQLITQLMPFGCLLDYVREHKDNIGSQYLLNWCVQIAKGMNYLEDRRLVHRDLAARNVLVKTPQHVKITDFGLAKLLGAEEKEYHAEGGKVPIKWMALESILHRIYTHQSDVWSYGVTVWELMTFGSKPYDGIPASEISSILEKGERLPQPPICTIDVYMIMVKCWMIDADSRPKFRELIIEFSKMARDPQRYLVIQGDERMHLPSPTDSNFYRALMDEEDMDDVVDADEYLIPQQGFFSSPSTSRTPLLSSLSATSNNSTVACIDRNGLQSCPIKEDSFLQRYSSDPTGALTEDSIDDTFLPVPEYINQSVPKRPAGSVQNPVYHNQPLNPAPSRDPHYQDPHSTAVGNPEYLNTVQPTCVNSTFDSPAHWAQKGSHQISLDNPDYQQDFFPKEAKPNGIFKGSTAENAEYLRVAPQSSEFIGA
# assay text: Inhibition of Epidermal growth factor receptor (EGFr) tyrosine kinase
pIC50: −log10 of the molar value.
metric: pIC50

Cc1cc(C)c(C)c(-c2cc3cnc(NCCCN4CCN(C)CC4)nc3nc2NC(=O)NC(C)(C)C)c1C ... 5.15
CCN(CC)CCCNc1ncc2cc(-c3c(Cl)cccc3Cl)c(NC(=O)NC(C)(C)C)nc2n1 ... 5.21

a = CCNC(=O)Nc1nc2nc(N)ncc2cc1-c1c(Cl)cccc1Cl
b = Cc1cccc(C)c1-c1cc2cnc(N)nc2nc1NC(=O)NC(C)(C)C
Exercise: When the recorded pIC50 values are compared, which is smaller: that of a or that of b ? Write down the label of the entry you select.
Key: a

====

# target system: Fibroblast growth factor receptor (Homo sapiens, UniProt P22607+P11362+P22455+P21802)
# assay text: Inhibition of Fibroblast growth factor receptor (FGFr) tyrosine kinase
# Format: protein assay
metric: IC50 (nM)

Consider the reported IC50 for these compounds:
CCNC(=O)Nc1nc2nc(N)ncc2cc1-c1c(Cl)cccc1Cl ... 130
Cc1cccc(C)c1-c1cc2cnc(N)nc2nc1NC(=O)NC(C)(C)C ... 400

A = Cc1cc(C)c(C)c(-c2cc3cnc(NCCCN4CCN(C)CC4)nc3nc2NC(=O)NC(C)(C)C)c1C
B = COc1cc(OC)cc(-c2cc3cnc(N)nc3nc2NC(=O)NC(C)(C)C)c1
Exercise: Hello, I am sorting some records. Could you say if A or B has the smaller IC50 value? Answer format: the label of the selected item.
Key: B

A = CC(C)(C)NC(=O)Nc1nc2nc(N)ncc2cc1-c1c(Cl)cccc1Cl
B = CCN(CC)CCCNc1ncc2cc(-c3c(Cl)cccc3Cl)c(NC(=O)NC(C)(C)C)nc2n1
Exercise: Which value of IC50 is smaller, the one for A or the one for B ? Please reply using the label of the selected record.
Key: B

====

These compounds were tested on Insulin receptor (Homo sapiens, UniProt P06213); IC50 is the recorded read-out.
Sequence (P06213 28-758 limits assumed): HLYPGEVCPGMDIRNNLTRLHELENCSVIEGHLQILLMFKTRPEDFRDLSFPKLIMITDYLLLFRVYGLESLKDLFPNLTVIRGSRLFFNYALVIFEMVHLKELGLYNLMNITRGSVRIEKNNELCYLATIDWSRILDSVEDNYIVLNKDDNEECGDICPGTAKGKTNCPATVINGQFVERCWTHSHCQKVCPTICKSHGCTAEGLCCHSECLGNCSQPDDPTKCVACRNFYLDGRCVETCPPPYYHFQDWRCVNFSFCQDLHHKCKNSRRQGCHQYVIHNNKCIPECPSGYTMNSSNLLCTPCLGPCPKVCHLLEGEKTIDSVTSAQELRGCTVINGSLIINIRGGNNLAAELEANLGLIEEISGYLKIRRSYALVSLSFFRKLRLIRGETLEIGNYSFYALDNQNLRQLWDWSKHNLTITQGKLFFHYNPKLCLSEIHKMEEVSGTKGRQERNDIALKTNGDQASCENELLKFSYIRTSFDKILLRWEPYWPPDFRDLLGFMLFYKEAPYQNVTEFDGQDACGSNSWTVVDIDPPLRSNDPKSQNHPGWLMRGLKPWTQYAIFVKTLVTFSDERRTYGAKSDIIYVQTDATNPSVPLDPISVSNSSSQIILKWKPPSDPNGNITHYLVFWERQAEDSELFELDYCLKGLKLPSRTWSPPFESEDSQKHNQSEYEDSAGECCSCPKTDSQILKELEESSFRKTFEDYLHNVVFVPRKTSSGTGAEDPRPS
Sequence (P06213 763-1382 limits assumed): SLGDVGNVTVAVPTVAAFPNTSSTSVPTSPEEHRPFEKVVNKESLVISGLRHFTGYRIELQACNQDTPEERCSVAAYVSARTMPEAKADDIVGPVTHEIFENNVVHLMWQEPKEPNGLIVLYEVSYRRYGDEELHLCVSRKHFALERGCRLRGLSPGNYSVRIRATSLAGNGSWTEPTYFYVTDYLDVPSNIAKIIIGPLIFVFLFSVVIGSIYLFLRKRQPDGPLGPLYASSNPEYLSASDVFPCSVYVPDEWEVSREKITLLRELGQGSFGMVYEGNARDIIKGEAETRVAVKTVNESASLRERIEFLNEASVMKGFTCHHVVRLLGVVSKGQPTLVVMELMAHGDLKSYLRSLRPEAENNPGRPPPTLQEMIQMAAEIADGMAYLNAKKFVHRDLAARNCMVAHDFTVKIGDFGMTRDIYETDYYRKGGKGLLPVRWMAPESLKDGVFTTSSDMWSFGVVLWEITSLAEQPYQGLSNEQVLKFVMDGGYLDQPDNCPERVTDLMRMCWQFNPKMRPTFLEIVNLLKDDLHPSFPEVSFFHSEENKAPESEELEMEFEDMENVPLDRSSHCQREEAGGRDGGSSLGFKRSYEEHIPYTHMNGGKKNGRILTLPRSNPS

CCNC(=O)Nc1nc2nc(N)ncc2cc1-c1c(Cl)cccc1Cl ... > 50 µM

# evaluate next
Exercise: Requested field: IC50. Item: "CCN(CC)CCCCNc1ncc2cc(-c3c(Cl)cccc3Cl)c(NC(=O)NC(C)(C)C)nc2n1"
Key: > 50 µM

====

# assay text: The half life in rat plasma after intravenous administration
# Assay type: ADME, organism-based
metric: half-life (min)
The reply should be a number in min, with the unit left off.

Exercise: Which value of half-life has been reported for "CN1CCN(CCCNc2ncc3cc(-c4c(Cl)cccc4Cl)c(NC(=O)NC(C)(C)C)nc3n2)CC1" in the records?
Key: 161

====

# target system: Epidermal growth factor receptor (Homo sapiens)
# assay text: Inhibition of epidermal growth factor receptor (EGFr) tyrosine kinase
metric: pIC50
// pIC50 here means minus log10 of the molar concentration (mol/L)

Exercise: What measured pIC50 goes with "CC(C)(C)NC(=O)Nc1nc2nc(N)ncc2cc1-c1ccccc1" ?
Key: 5.26
